The reported measurements were obtained from ChEMBL document CHEMBL1134132.

# Tgt: Plasminogen (Homo sapiens)
# Sequence (P00747 97-580 limits assumed): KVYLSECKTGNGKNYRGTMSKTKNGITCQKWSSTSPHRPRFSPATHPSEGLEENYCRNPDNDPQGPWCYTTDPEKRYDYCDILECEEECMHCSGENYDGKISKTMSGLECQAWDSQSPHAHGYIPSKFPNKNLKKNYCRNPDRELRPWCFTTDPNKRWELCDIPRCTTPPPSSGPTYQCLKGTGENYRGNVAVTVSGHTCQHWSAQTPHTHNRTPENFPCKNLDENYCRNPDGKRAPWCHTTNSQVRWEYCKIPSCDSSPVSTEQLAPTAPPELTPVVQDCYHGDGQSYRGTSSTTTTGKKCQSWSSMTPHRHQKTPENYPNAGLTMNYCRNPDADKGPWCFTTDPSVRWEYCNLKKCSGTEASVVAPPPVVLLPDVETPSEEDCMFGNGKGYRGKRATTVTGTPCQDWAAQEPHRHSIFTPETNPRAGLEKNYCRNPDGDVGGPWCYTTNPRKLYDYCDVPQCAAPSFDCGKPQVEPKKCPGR
# Sequence (P00747 581-810 limits assumed): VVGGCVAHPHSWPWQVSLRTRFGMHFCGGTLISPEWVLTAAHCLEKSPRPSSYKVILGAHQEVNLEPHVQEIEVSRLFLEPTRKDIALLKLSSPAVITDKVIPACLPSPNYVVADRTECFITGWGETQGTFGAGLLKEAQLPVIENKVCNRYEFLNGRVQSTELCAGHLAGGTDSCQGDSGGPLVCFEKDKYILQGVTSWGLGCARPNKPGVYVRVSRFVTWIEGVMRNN
# Assay Summary: Inhibitory activity against plasmin in human plasma
Recorded Metric: pKi
In simple prose, pKi is minus the logarithm base ten of a concentration in moles per litre.

Entry Smiles	Tgt	pKi
CC(C)(C(=O)O)c1cc(Br)c(O)c(-c2[nH]c3ccc(C(=N)N)cc3c2Cc2ccccc2)c1	Plasminogen (Homo sapiens)	5.52

Param item: Cc1cc(C)c(O)c(-c2cc3cc(C(=N)N)ccc3[nH]2)c1 ; param system: Plasminogen (Homo sapiens); output pKi: 5.00

Test item N=C(N)c1ccc2[nH]c(-c3cc(CCCC(=O)O)cc(Br)c3O)c(Cc3ccccc3)c2c1 ; Plasminogen (Homo sapiens); reported pKi was 5.82

// returns pKi for N=C(N)c1ccc2[nH]c(-c3cc(CCOP(=O)(O)O)cc(Br)c3O)c(Cc3ccccc3)c2c1 with Plasminogen (Homo sapiens); value = 5.92

Plasminogen (Homo sapiens) pKi of Cc1ccc(O)c(-c2cc3cc(C(=N)N)ccc3[nH]2)c1 is 4.68

Form: item Cc1cc(Br)c(O)c(-c2[nH]c3ccc(C(=N)N)cc3c2Cc2ccccc2)c1 ; test system Plasminogen (Homo sapiens); pKi: 5.34

====

Reported Ki is given for each of the following compounds.
# Tgt: Serine protease 1 (Homo sapiens)
# Sequence (P07477 whole entry): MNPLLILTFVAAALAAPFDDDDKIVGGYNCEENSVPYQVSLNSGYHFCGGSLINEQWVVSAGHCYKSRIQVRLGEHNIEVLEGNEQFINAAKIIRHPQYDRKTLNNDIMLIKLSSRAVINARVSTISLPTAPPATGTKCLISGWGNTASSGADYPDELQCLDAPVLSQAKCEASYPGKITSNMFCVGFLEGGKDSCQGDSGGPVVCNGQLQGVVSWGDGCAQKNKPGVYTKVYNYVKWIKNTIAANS
# Assay Summary: Inhibitory activity against trypsin in human plasma
Respond with the bare value in nM.

For N=C(N)c1ccc2[nH]c(-c3cc(Cc4nn[nH]n4)cc(Br)c3O)c(Cc3ccccc3)c2c1 on Serine protease 1 (Homo sapiens), measured Ki was 840

====

# Tgt: Prothrombin (Homo sapiens, UniProt P00734)
# Assay Summary: Inhibitory activity against thrombin(fIIa) in human plasma
A collection of molecules and their measured Ki
// return the numeric value with its unit appended

Entry Smiles	Recorded Metric	Recorded Measurement
N=C(N)c1ccc2[nH]c(-c3cc(Br)cc(CCC(=O)O)c3)c(Cc3ccccc3)c2c1	Ki	12000 nM
N=C(N)c1ccc2[nH]c(-c3cc(CCCC(=O)O)cc(Br)c3O)c(Cc3ccccc3)c2c1	Ki	40 nM
CC(C)(C(=O)O)c1cc(Br)c(O)c(-c2[nH]c3ccc(C(=N)N)cc3c2Cc2ccccc2)c1	Ki	750 nM
N=C(N)c1ccc2[nH]c(-c3cc(CCC(=O)O)cc(Br)c3O)c(Cc3ccccc3)c2c1	Ki	120 nM
N=C(N)c1ccc2[nH]c(-c3cc(-c4nn[nH]n4)cc(Br)c3O)c(Cc3ccccc3)c2c1	Ki	350 nM

The reported Prothrombin (Homo sapiens, UniProt P00734) Ki of CN(C)C(=O)Cc1cc(Br)c(O)c(-c2[nH]c3ccc(C(=N)N)cc3c2Cc2ccccc2)c1 is 43 nM

Here Cc1cc(Br)c(O)c(-c2[nH]c3ccc(C(=N)N)cc3c2CCc2ccccc2)c1 was tested on Prothrombin (Homo sapiens, UniProt P00734), and its Ki came to 710 nM

Kindly note: Prothrombin (Homo sapiens, UniProt P00734), Cc1cc(Cl)c(O)c(-c2cc3cc(C(=N)N)ccc3[nH]2)c1 , Ki value reported: 460 nM

====

# Tgt: UniProt P00747
# Assay Summary: Inhibitory activity against plasmin in human plasma
With a cut-off of 2000 nM, any Ki strictly below it is called Y; any Ki meeting it or above is called N.

Would you please look over these solved cases?
Entry Smiles	Class Assignment
Cc1cc(Br)c(O)c(-c2cc3cc(C(=N)N)ccc3[nH]2)c1	Y
Cc1cc(Br)c(O)c(-c2[nH]c3ccc(C(=N)N)cc3c2CCCc2ccccc2)c1	N
Cc1cc(-c2ccccc2)c(O)c(-c2cc3cc(C(=N)N)ccc3[nH]2)c1	Y

Task: Ki strictly < 2000 nM for this compound? N=C(N)c1ccc2[nH]c(-c3cc(C(=O)O)cc(Br)c3O)c(Cc3ccccc3)c2c1
Output: Y

Task: Check if Ki falls below 2000 nM for N=C(N)c1ccc2[nH]c(-c3cc(Cc4nn[nH]n4)cc(Br)c3O)c(Cc3ccccc3)c2c1 .
Output: N

Task: # strict comparison: is reported Ki < 2000 nM? input = N=C(N)c1ccc2[nH]c(-c3cc(CCC(=O)O)cc(Br)c3O)c(Cc3ccccc3)c2c1
Output: Y

Task: Consider the compound Cc1cc(Br)c(O)c(-c2[nH]c3ccc(C(=N)N)cc3c2CCc2ccccc2)c1 . Is its Ki strictly less than 2000 nM?
Output: N
